target or system: Dual specificity tyrosine-phosphorylation-regulated kinase 1A (Rattus norvegicus) (UniProt Q63470)
method notes: rat Dyrk1A kinase inhibitors, dose response, biochemical, cherry-pick, plate reader, 2124-01 (AID 588345)
condition context: Dyrk1A kinase biochemical assay; series mostly up to 12 µM
Among all 1,300 compounds or so, about 850 (65%) were called active. Inconclusive results (about 1%) are left out. So high a share suggests a set chosen from earlier hits. These entries were drawn from the full list. Measured potencies and affinities stand elsewhere.
assay readout: outcome

Record excerpt, results attached:
[
  {
    "compound": "O=C(O)CSc1ncnc2scc(-c3ccccc3)c12",
    "value observed": "inactive"
  },
  {
    "compound": "Cc1ccc(NC(=S)Nc2ccc3cn[nH]c3c2)cc1",
    "value observed": "inactive"
  },
  {
    "compound": "COc1cccc(-c2nnc3sc(C4CCCCC4)nn23)c1",
    "value observed": "inactive"
  },
  {
    "compound": "Cc1cccc(Nc2nc(N)c([N+](=O)[O-])c(N3CCC(C)CC3)n2)c1",
    "value observed": "inactive"
  },
  {
    "compound": "O=C1C=C(c2ccc3c(c2)OCO3)CCC1",
    "value observed": "inactive"
  },
  {
    "compound": "Oc1cccc2c(-c3nn[nH]n3)ccnc12",
    "value observed": "inactive"
  },
  {
    "compound": "Fc1ccccc1-c1nc(-c2ccc(-c3nn[nH]n3)cc2)no1",
    "value observed": "inactive"
  },
  {
    "compound": "COc1ccc(C(=O)N(Cc2nc(-c3ccc(C)cc3)no2)C(C)C)cc1OC",
    "value observed": "inactive"
  },
  {
    "compound": "O=C1C2C(c3ccccc3)CC=CC2[C@H](c2ccoc2)N1Cc1ccccc1 (stereo partly specified)",
    "value observed": "inactive"
  },
  {
    "compound": "O=C(CN1CCOCC1)Nc1nc2ccc([N+](=O)[O-])cc2s1",
    "value observed": "inactive"
  }
]

// query // returns reported outcome for input COc1ccc(N(CC(=O)Nc2ccc3c(c2)OCCO3)S(=O)(=O)c2c(C)nn(C)c2C)cc1
// result inactive

----------
target or system: Dual specificity tyrosine-phosphorylation-regulated kinase 1A (Rattus norvegicus) (UniProt Q63470)
method notes: rat Dyrk1A kinase inhibitors, dose response, biochemical, cherry-pick, plate reader, 2124-01 (AID 588345)
condition context: Dyrk1A kinase biochemical assay; series mostly up to 12 µM
Out of some 1,300 compounds screened, about 850 (65%) were called active. Inconclusive results (about 1%) are left out. So high a share suggests a set chosen from earlier hits. The list is a sample of the results. Results with a measured potency or affinity are listed apart.
assay readout: outcome

Record excerpt, results attached:
[
  {
    "molecule": "COc1ccc(-c2cn[nH]c2C)cc1",
    "outcome": "inactive"
  },
  {
    "molecule": "Cc1cccc(C)c1OCCOC(=O)c1n[nH]c2ccccc12",
    "outcome": "inactive"
  },
  {
    "molecule": "CSc1nc(SCC(N)=O)c2c3c(sc2n1)CN(C)CC3",
    "outcome": "inactive"
  },
  {
    "molecule": "CCOC(=O)C1CCCN(c2c(NCCN(C)Cc3ccccc3)c(=O)c2=O)C1 (stereo unspecified)",
    "outcome": "inactive"
  },
  {
    "molecule": "CC(C)NS(=O)(=O)c1ccc(OCC(=O)N(C)Cc2ccccc2)cc1",
    "outcome": "inactive"
  },
  {
    "molecule": "CCOC(=O)c1nnc(-c2ccc(C)cc2)nc1Sc1ccc(Cl)cc1",
    "outcome": "inactive"
  },
  {
    "molecule": "Cc1ccnc(NC(=O)c2cccc(S(=O)(=O)N3CCN(c4ccccc4)CC3)c2)c1",
    "outcome": "inactive"
  },
  {
    "molecule": "N#Cc1c2ccc(O)cc2n2ccccc12",
    "outcome": "inactive"
  },
  {
    "molecule": "c1ccc2c(c1)Nc1ccncc1S2",
    "outcome": "inactive"
  },
  {
    "molecule": "c1csc(CNc2ncnc3ccc(-c4ccc5c(c4)OCCO5)cc23)c1",
    "outcome": "inactive"
  }
]

// query // returns reported outcome for input CC(C)CC(NC(=O)C1CCC(C)CC1)C(=O)Nc1ccc2c(c1)OCCO2 (stereo unspecified)
// result inactive
